- assay: drug combination growth inhibition, ovarian cancer – cell-based, oncology-focused library, rucaparib conditional, profiling panel (AID 1508598)
- condition summary: patient-derived ovarian cancer cells, CellTiter-Glo viability, 144 h; at 0.00488 µM; OCI-P5x cells; without rucaparib; hits give low values
property label: viability (%)
Just the number please, in %, no unit attached.

The examples below pair each entry with its known result.
compound	viability (%)
Cc1cc(NC(=O)c2cccc(NC(=O)/C=C/CN(C)C)c2)ccc1Nc1nccc(-c2cccnc2)n1	107
Nc1nc(F)nc2c1ncn2[C@H]1O[C@H](CO)[C@@H](O)[C@@H]1O	112
N[C@@H]1CCCN(c2c(/C=C3\SC(=O)NC3=O)cccc2-c2ccccc2)C1	108
C[C@]12CC[C@H]3c4ccc(O)cc4CC[C@H]3[C@@H]1CC[C@H]2O	112
C[C@@]12CC[C@H]3c4ccc(O)cc4C[C@@H](CCCCCCCCCS(=O)CCCC(F)(F)C(F)(F)F)[C@H]3[C@@H]1CC[C@@H]2O (stereo not given in full)	117

Entry O=C(O)c1cc(I)ccc1NC(=O)[C@H](Cc1ccccc1)NCc1ccccc1 : reported viability = ?
97.1

Form field: reported viability of COc1cc(Br)c(Nc2nc(-c3c(C)nc4ncccn34)cs2)c(Br)c1
95.9

Consider the compound shown here: COc1cc(C(=O)NC2CCN(C)CC2)ccc1Nc1ncc2c(n1)N(C1CCCC1)CC(F)(F)C(=O)N2C What is its recorded viability?
69.2

Entry CC(=O)OCC(=O)[C@]1(O)[C@H](C)C[C@H]2[C@@H]3CCC4=CC(=O)C=C[C@]4(C)[C@]3(F)[C@H](O)C[C@@]21C : reported viability = ?
105

What value of viability has been reported for the following compound? COc1cc([C@H]2c3cc4c(cc3[C@@H](O[C@@H]3O[C@@H]5CO[C@@H](C)O[C@H]5[C@H](O)[C@@H]3O)[C@H]3COC(=O)[C@H]23)OCO4)cc(OC)c1O
101

# query: viability of entry COc1cc([C@H]2c3cc4c(cc3[C@@H](O[C@@H]3O[C@@H]5CO[C@@H](c6cccs6)O[C@H]5[C@H](O)[C@H]3O)[C@H]3COC(=O)[C@H]23)OCO4)cc(OC)c1O
109

viability lookup needed for COC1=C2C[C@H](C)C[C@@H](OC)[C@H](O)[C@H](C)/C=C(\C)[C@H](OC(N)=O)[C@@H](OC)/C=C/C=C(\C)C(=O)NC(=CC1=O)C2=O , thanks.
14.2

Record request: viability value, item COc1ccc(C2=N[C@H](c3ccc(Cl)cc3)[C@@H](c3ccc(Cl)cc3)N2C(=O)N2CCNC(=O)C2)c(OC(C)C)c1
90.1

State the recorded viability for this entry: C[C@@]1(c2nc3c(C(N)=O)cccc3[nH]2)CCCN1
102

Fill in: viability of CC(=O)O[C@]12CO[C@@H]1C[C@H](O)[C@]1(C)C(=O)[C@H](O)C3=C(C)[C@H](OC(=O)[C@H](O)[C@@H](NC(=O)OC(C)(C)C)c4ccccc4)C[C@](O)([C@H](OC(=O)c4ccccc4)C21)C3(C)C (stereo not given in full) is ___
19.5
